Reference for the values: ChEMBL document CHEMBL6074654

# assayed system: UniProt Q9Y6K1
# Sequence (Q9Y6K1 whole entry, looked up): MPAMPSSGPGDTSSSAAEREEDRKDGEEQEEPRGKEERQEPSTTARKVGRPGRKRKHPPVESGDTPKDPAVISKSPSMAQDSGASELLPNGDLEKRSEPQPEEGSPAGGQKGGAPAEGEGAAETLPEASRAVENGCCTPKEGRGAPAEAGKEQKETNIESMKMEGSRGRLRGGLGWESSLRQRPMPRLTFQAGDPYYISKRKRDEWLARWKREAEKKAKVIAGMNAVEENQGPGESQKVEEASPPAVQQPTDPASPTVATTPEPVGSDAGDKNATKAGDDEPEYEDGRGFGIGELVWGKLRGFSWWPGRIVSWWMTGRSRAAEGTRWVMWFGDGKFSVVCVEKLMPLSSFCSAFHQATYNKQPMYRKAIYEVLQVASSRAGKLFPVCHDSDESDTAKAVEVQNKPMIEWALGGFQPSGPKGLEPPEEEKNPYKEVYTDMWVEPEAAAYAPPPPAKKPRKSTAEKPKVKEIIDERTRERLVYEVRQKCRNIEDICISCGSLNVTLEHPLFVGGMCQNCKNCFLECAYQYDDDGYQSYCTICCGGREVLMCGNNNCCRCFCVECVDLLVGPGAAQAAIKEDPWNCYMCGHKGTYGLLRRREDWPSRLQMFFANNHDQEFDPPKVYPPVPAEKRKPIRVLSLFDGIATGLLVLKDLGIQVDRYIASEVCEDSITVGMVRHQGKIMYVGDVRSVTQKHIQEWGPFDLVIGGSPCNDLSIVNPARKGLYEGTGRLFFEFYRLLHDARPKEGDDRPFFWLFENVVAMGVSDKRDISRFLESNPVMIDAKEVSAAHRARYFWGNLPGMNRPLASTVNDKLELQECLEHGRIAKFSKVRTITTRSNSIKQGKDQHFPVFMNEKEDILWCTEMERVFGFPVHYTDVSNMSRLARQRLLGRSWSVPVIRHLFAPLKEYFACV
pIC50: −log10 of the molar value.
Documented pIC50 across a set of molecules
measured metric: pIC50

1. c1ccc2c(NCCNc3ncnc4cc(OCC5CCN(CCNc6ccnc7ccccc67)CC5)ccc34)cccc2c1 = 6.52
2. CCN(CC)CCNC(=O)c1ccc(NCCCCCCCCCCCCN2C(=O)c3ccccc3C2=O)cc1 = 5.09
3. COc1ccc(Cl)cc1C(=O)NCCc1ccc(O)cc1 = 4.44
